Entries and their ELISA fold over background values follow.
target-system: T1, COVID S1 RBM Fc fusion (Antigen 2) (SARS-CoV-2, UniProt P0DTC2 437-508)
T1 construct: domain: RBM
experimental-details: phage ELISA
endpoint-label: ELISA fold over background (fold over background)

[[record]]
binder = "1-24 (antibody, V domains shown, also called variant 1-24) VH: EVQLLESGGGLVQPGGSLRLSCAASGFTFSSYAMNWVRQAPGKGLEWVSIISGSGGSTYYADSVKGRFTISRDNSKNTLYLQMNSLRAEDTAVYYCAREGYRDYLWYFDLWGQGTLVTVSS VL: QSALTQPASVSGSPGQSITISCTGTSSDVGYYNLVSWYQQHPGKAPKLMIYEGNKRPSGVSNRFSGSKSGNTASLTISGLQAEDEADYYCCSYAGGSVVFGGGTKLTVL"
endpoint_label = "ELISA fold over background"
data_value = 1.3

[[record]]
binder = "1-35 (antibody, V domains shown, also called variant 1-35) VH: EVQLLESGGGLVQPGGSLRLSCAASGFTFSNYAMSWVRQAPGKGLEWVSDISGSGGSTYYADSVKGRFTISRDNSKNTLYLQMNSLRAEDTAVYYCVKGTIPIFGVIRSAFDYWGQGTLVTVSS VL: QSALTQPASVSGSPGQSITISCTGTSSDVGSYSLVSWYQQHPGKAPKLMIYEGTKRPSGVSNRFSGSKSGNTASLTISGLQAEDEADYYCCSYAGSYSYVVFGGGTKLTVL"
endpoint_label = "ELISA fold over background"
data_value = 1.6

[[record]]
binder = "1-4 (antibody, V domains shown, also called variant 1-4) VH: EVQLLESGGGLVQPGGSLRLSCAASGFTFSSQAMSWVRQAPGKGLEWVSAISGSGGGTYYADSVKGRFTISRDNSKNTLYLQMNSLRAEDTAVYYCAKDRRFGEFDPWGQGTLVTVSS VL: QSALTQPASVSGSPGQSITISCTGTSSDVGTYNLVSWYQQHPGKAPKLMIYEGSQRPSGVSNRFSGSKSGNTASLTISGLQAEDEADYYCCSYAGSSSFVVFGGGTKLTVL"
endpoint_label = "ELISA fold over background"
data_value = 1.1

[[record]]
binder = "1-48 (antibody, V domains shown, also called variant 1-48) VH: EVQLLESGGGLVQPGGSLRLSCAASGFTFSSHAMYWVRQAPGKGLEWVSAISGSAGSTYYADSVKGRFTISRDNSKNTLYLQMNSLRAEDTAVYYCAHDTKDFWSGYCIFDPWGQGTLVTVSS VL: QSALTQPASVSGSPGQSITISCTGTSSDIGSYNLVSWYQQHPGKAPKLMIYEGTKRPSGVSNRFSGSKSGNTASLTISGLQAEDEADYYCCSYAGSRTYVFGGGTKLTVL"
endpoint_label = "ELISA fold over background"
data_value = 0.8

[[record]]
binder = "1-7 (antibody, V domains shown, also called variant 1-7) VH: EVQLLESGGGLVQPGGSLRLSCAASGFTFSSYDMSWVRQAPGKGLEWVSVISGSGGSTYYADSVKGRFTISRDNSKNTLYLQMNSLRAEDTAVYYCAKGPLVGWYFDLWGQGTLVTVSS VL: QSALTQPASVSGSPGQSITISCTGTSSDFGSYNLVSWYQQHPGKAPKLMIYEGNKRPSGVSNRFSGSKSGNTASLTISGLQAEDEADYYCCSYAGSSTFVVFGGGTKLTVL"
endpoint_label = "ELISA fold over background"
data_value = 1.6

[[record]]
binder = "1-29 (antibody, V domains shown, also called variant 1-29) VH: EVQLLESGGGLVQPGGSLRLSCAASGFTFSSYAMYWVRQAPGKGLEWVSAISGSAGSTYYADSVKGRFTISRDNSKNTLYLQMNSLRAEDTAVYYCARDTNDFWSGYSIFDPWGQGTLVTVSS VL: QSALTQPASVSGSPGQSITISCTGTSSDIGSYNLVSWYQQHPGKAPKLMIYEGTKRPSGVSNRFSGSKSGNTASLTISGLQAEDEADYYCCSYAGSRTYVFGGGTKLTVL"
endpoint_label = "ELISA fold over background"
data_value = 0.9

[[record]]
binder = "1-27 (antibody, V domains shown, also called variant 1-27) VH: EVQLLESGGGLVQPGGSLRLSCAASGFTFSSYAMTWVRQAPGKGLEWVSAISGSGGGTYYADSVKGRFTISRDNSKNTLYLQMNSLRAEDTAVYYCASSSSWQFDYWGQGTLVTVSS VL: QSALTQPASVSGSPGQSITISCTGTSSYVGHYNLVSWYQQHPGKAPKLMIYEGSRRPSGVSNRFSGSKSGNTASLTISGLQAEDEADYYCCSYAGSYTHYVFGGGTKLTVL"
endpoint_label = "ELISA fold over background"
data_value = 1.6

[[record]]
binder = "1-47 (antibody, V domains shown, also called variant 1-47) VH: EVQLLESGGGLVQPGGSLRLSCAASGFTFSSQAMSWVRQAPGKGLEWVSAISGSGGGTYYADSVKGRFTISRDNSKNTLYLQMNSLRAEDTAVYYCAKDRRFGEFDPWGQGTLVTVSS VL: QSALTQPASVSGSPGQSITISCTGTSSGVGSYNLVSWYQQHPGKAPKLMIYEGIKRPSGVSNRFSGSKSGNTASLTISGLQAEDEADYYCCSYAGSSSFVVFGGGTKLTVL"
endpoint_label = "ELISA fold over background"
data_value = 0.9

[[record]]
binder = "1-49 (antibody, V domains shown, also called variant 1-49) VH: EVQLLESGGGLVQPGGSLRLSCAASGFTFSSYAMYWVRQAPGKGLEWVSAISGSAGSTYYADSVKGRFTISRDNSKNTLYLQMNSLRAEDTAVYYCARDTNDFWGQGTLVTVSS VL: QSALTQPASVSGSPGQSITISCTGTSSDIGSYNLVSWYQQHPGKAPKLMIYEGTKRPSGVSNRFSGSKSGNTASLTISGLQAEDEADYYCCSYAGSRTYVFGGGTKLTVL"
endpoint_label = "ELISA fold over background"
data_value = 0.8

[[record]]
binder = "1-31 (antibody, V domains shown, also called variant 1-31) VH: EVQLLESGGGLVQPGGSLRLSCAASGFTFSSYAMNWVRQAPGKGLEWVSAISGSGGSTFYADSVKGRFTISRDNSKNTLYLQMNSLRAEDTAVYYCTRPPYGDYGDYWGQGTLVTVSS VL: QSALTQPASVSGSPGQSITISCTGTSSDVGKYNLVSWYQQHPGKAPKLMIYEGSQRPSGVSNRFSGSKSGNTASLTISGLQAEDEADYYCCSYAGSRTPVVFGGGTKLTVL"
endpoint_label = "ELISA fold over background"
data_value = 1.2

